# Test system: Candida glabrata ATCC 66032
# Assay explanation: MIC broth microdilution
# Type: cell-based
# Cond: Nakaseomyces glabratus, ATCC66032, C. glabrata; value in parentheses; read-out: MIC
Quantity: MIC (µM)

[[record]]
molecule = "CCCCCCCCCCNC(=O)C(CCCNC(=N)N)NC(=O)C(N)Cc1c[nH]c2ccccc12 (stereo not drawn)"
readout_value = 112

[[record]]
molecule = "CCCCCCCCCCCCNC(=O)C(CCCNC(=N)N)NC(=O)C(N)Cc1ccccc1 (stereo not drawn)"
readout_value = 56

[[record]]
molecule = "CCCCCCCCCCCCCCNC(=O)C(CCCNC(=N)N)NC(=O)C(N)Cc1ccccc1 (stereo not drawn)"
readout_value = 14

